test system: human ether-à-go-go-related gene (hERG) potassium channel (human, UniProt Q12809)
Sequence (Q12809 whole entry, looked up): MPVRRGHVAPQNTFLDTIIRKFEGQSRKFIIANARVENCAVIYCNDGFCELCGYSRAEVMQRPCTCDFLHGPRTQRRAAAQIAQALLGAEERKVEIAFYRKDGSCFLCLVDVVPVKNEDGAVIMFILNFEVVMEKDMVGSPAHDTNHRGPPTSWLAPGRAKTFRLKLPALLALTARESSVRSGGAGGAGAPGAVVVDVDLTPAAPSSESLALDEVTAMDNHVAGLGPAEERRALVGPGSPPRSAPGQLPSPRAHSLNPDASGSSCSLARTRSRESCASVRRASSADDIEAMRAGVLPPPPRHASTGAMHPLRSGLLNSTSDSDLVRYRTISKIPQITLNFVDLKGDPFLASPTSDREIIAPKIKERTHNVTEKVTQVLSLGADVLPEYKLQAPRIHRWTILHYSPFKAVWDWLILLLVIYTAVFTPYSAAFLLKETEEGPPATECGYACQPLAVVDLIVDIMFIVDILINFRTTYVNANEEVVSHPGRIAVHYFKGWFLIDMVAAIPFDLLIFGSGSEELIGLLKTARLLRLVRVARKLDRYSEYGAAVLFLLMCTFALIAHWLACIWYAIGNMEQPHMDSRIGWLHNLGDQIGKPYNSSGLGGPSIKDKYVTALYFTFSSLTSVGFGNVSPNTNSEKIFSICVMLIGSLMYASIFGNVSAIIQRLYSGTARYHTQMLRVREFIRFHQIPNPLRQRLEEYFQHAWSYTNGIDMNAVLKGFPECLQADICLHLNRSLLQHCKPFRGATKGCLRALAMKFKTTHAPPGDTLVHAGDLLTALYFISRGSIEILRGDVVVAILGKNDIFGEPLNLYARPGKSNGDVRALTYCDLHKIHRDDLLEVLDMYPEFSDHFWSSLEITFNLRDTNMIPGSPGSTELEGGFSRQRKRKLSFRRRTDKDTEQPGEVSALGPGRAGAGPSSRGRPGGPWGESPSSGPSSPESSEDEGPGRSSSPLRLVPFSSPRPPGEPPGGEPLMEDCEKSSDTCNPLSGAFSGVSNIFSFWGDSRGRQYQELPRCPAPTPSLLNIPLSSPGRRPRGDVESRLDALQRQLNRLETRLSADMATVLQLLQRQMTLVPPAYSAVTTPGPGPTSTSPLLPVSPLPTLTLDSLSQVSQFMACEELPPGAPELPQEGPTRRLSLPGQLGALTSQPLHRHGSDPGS
method: primary screen, population patch clamp on CHO cells stably expressing hERG; higher = less effect of the substance
The whole screen tested about 310,000 compounds, of which about 2,200 (0.71%) showed an effect of 50% or more. Effects have a minus sign here. What follows is part of a selection rich in strong results, with near analogues and random picks from the rest.
Below, each entry is listed alongside its reported hERG current change (%, negative = inhibition) at 1uM.
// units = %; emit number, no label

See these solved cases before continuing.
Cc1ccccc1C(=O)Nc1c(C(=O)N(CCN(C)C)Cc2ccco2)oc2ccccc12 | -81.1
CCCN1CCN(C(=O)c2oc3ccccc3c2NC(=O)COc2ccc(OC)cc2)CC1 | -46.3
CC1CCN(C(=O)COC(=O)C23CC4CC(CC(O)(C4)C2)C3)CC1 | 18.8
COC(=O)C1=C(C(=O)OC)SC2(S1)C(C(=O)OC)=C(C(=O)OC)SC1=C2c2cc(C)ccc2NC1(C)C | 11
COc1ccc(-n2c(C)c3c(OC)cccc(=O)c3c2C)cc1 | 0.316

Enquiry: # get_value(readout='hERG current change (%, negative = inhibition) at 1uM', item= CCc1ccc(NC(=O)CSCCN2C(=O)c3ccccc3C2=O)cc1 )
Return: -8.99

Where these numbers come from: paper PMC4336329
